Entry source: patent US20150141375A1

Each record here notes measured Cmax.
Assay: Safety and pharmacokinetics of CMX001 in healthy volunteers
Format: in vivo, human
Conditions: blood, 0.1 mg/kg; Human, CMX001 0.100 mg/kg; analyte = label
Entry rule: numbers only, all in ng/mL.

Record request: Cmax value, item Nc1ccn(C[C@@H](CO)OCP(=O)(O)OCCCOCCCC(=O)O)c(=O)n1 [CMX064] 2.85

Record request: Cmax value, item Nc1ccn(C[C@@H](CO)OCP(=O)(O)O)c(=O)n1 [Cidofovir, cidofovir, reference compound] 3.44

Record request: Cmax value, item CCCCCCCCCCCCCCCCOCCCOP(=O)(O)CO[C@H](CO)Cn1ccc(N)nc1=O [CMX001, Hexadecyloxypropyl-cidofovir] 10.6
